Could you please report measured IC50 for the items listed next?
target: human DGKζ (Homo sapiens, UniProt Q13574); construct: made in house; host or cells: Sf9 insect cells, baculovirus; assay: Human DGKζ kinase activity inhibition assay (ADP-Glo); type: biochemical; conditions: example compounds; recombinant full-length human DGKζ, 1,2-dioleoyl-sn-glycerol 7 μM, ATP 55 μM, 20 min at 22° C.; read-out: IC50 values of examples in in vitro human DGKζ kinase activity inhibition assays
Sequence (Q13574 with tags, fused parts or gaps): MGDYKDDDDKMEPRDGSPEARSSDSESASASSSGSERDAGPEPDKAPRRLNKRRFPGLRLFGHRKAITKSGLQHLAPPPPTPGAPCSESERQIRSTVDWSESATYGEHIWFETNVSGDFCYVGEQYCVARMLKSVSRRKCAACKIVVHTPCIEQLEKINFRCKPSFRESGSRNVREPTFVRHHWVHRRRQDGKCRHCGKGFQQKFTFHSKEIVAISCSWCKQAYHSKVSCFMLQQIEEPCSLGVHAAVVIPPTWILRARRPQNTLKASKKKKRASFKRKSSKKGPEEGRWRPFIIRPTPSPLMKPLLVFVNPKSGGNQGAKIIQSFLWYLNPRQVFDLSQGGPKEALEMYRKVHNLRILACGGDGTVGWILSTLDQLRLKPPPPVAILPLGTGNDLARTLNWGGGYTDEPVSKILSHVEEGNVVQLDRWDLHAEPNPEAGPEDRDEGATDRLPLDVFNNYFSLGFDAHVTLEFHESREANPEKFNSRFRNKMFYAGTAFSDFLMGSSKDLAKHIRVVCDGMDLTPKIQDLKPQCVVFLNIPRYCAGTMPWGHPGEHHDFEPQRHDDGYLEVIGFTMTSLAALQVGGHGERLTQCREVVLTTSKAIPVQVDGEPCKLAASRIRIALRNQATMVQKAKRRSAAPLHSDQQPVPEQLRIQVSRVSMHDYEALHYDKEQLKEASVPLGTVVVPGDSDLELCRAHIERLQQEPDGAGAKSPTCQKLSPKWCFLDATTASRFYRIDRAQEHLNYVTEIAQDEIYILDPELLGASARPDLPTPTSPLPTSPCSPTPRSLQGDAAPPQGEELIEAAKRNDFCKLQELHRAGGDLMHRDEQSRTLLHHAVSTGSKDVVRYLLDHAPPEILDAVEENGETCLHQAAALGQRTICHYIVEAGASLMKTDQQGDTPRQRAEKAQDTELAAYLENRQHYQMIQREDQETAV
Give bare numbers, in nM.

Dear reader, for each entry below, please note its IC50.
1. CC(C(N)=O)N(c1ccc(F)cc1)c1nc(N)c(C(=O)c2cc(OC(F)F)no2)s1 (racemic) [Example 48]
2. CC(C(N)=O)N(c1ccc(F)cc1)c1nc(N)c(C(=O)c2cc(CNC3(C)CCCC3)no2)s1 (racemic) [Example 61]
3. CC(C(N)=O)N(c1ccc(F)cc1)c1nc(N)c(C(=O)c2cc(C(=O)NC3(C)CCC3)no2)s1 (single isomer, unassigned) [Example 30.2]

1: 73; 2: 98; 3: 13400

Return reported IC50 values for all items listed beneath this line.
1. CC(NC(=O)c1cc(C(=O)c2sc(N(c3ccc(F)cc3)C(C)C(N)=O)nc2N)on1)C(F)F (racemic) [Example 41]
2. CC(C(N)=O)N(c1ccc(F)cc1)c1nc(N)c(C(=O)c2cc(C(=O)NC3CC3)no2)s1 (racemic) [Example 15]
3. CC(C(N)=O)N(c1ccc(F)cc1)c1nc(N)c(C(=O)c2cc(C(=O)NC3CCCC3(C)C)no2)s1 (racemic) [Example 37]
4. CC(C(N)=O)N(c1ccc(F)cc1)c1nc(N)c(C(=O)c2cc(C(=O)NC3CCCC3)no2)s1 (racemic) [Example 25]

134
565
43
134

###

biological target: human DGKζ (Homo sapiens, UniProt Q13574); construct: made in house; host or cells: Sf9 insect cells, baculovirus; assay: Human DGKζ kinase activity inhibition assay (ADP-Glo); type: biochemical; conditions: example compounds; recombinant full-length human DGKζ, 1,2-dioleoyl-sn-glycerol 7 μM, ATP 55 μM, 20 min at 22° C.; read-out: IC50 values of examples in in vitro human DGKζ kinase activity inhibition assays
Field: pIC50. Provide a value for each of the molecules that follow.
Numbers only, as −log10 of the molar value.

CC(C(N)=O)N(c1ccc(F)cc1)c1nc(N)c(C(=O)c2cc(CO)no2)s1 (racemic) [Example 65] : 6.12
CC(C(N)=O)N(c1ccc(F)cc1)c1nc(N)c(C(=O)c2cc(C(=O)N3CCCCC3)no2)s1 (racemic) [Example 27] : 6.83
CC(C(N)=O)N(c1ccc(F)cc1)c1nc(N)c(C(=O)c2cc(-c3ccccc3F)no2)s1 (racemic) [Example 67] : 6.96
CC(C(N)=O)N(c1ccc(F)cc1)c1nc(N)c(C(=O)c2cc(C(=O)NCC(F)F)no2)s1 (racemic) [Example 17] : 6.16
CC(C(N)=O)N(c1ccc(F)cc1)c1nc(N)c(C(=O)c2cc(COc3ccc(C#N)cc3)no2)s1 (racemic) [Example 64] : 7.49
CC(C(N)=O)N(c1ccc(F)cc1)c1nc(N)c(C(=O)c2cc(-c3ccccc3)ns2)s1 (racemic) [Example 50] : 6.39
CC(C(N)=O)N(c1ccc(F)cc1)c1nc(N)c(C(=O)c2cc(C(=O)NC(CF)CF)no2)s1 (racemic) [Example 40] : 6.69
CC(C(N)=O)N(c1ccc(F)cc1)c1nc(N)c(C(=O)c2nc(C3CC3)no2)s1 (racemic) [Example 57] : 7.49
CC(C)Oc1cc(C(=O)c2sc(N(c3ccc(F)cc3)C(C)C(N)=O)nc2N)on1 (racemic) [Example 82] : 7.31
COCC(C)NC(=O)c1cc(C(=O)c2sc(N(c3ccc(F)cc3)C(C)C(N)=O)nc2N)on1 (racemic) [Example 36] : 6.35

Provide each entry's pIC50 from the list below.
1. CC(C(N)=O)N(c1ccc(F)cc1)c1nc(N)c(C(=O)c2cc(C(=O)NCCOC(C)(C)C)no2)s1 (racemic) [Example 26]
2. CC(C(N)=O)N(c1ccc(F)c(F)c1)c1nc(N)c(C(=O)c2cc(C(=O)NC3CC(F)(F)C3)no2)s1 (single isomer, unassigned) [Example 45.1]
3. CC(C(N)=O)N(c1ccc(F)cc1)c1nc(N)c(C(=O)c2cc(C(=O)NC3(C4CC4)CC3)no2)s1 (racemic) [Example 24]
4. CC(C(N)=O)N(c1ccc(F)cc1)c1nc(N)c(C(=O)c2cc(C(=O)N3CCOCC3)no2)s1 (racemic) [Example 13]

6.86
7.70
6.92
6.01
